The reported measurements were obtained from ChEMBL document CHEMBL1130155.

Procedure Summary: 1 mg/kg was administered intravenously in anesthetized rats and the concentration in plasma was determined after 5 minutes.
Condition Notes: rat, iv

Item Smiles | concentration at 5 min
CC(=O)N1CCN(C(=O)[C@@H](Cc2cccc(C(=N)N)c2)NS(=O)(=O)c2ccc3ccccc3c2)CC1 | 2080 ng/mL

* * *

Measured Target: Coagulation factor XII (Homo sapiens, UniProt P00748)
Sequence (P00748 whole entry): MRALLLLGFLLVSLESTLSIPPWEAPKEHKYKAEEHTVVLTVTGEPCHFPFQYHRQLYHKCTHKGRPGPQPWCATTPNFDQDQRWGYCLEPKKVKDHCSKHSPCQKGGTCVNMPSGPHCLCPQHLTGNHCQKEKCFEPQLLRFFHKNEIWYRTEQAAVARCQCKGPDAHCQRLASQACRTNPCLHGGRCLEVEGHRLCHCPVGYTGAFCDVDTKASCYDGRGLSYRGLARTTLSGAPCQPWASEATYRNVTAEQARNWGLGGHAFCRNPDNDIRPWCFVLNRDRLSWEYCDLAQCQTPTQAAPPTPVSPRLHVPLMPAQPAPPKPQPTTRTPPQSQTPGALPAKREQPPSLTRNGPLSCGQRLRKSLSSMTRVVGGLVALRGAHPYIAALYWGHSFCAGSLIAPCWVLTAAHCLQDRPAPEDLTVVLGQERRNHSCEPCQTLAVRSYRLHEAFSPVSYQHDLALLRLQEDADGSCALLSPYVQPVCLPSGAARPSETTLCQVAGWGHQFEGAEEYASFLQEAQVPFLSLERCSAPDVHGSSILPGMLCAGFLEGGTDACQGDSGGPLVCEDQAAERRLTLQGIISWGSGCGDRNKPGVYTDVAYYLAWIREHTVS
So basically: is Ki under 60 µM? Then MET. Not under? Then NOT MET.

Molecule | Answer Label
N=C(N)c1cccc(C[C@@H](NS(=O)(=O)c2ccc3ccccc3c2)C(=O)N2CCN(C=O)CC2)c1 | MET
Cc1c(C)c(S(=O)(=O)N[C@H](Cc2cccc(C(=N)N)c2)C(=O)N2CCN(S(C)(=O)=O)CC2)c(C)c2c1OC(C)(C)CC2 | NOT MET
CS(=O)(=O)N1CCN(C(=O)[C@@H](Cc2cccc(C(=N)N)c2)NS(=O)(=O)c2ccc3ccccc3c2)CC1 | MET
CC1(C)C2CCC1(CCS(=O)(=O)N[C@H](Cc1cccc(C(=N)N)c1)C(=O)N1CCN(S(C)(=O)=O)CC1)C(=O)C2 (stereo partly drawn) | MET
N=C(N)c1cccc(C[C@@H](NS(=O)(=O)c2ccc3ccccc3c2)C(=O)N2CCN(CCO)CC2)c1 | NOT MET
CN1CCN(C(=O)[C@@H](Cc2cccc(C(=N)N)c2)NS(=O)(=O)c2ccc3ccccc3c2)CC1 | NOT MET
CC(=O)N1CCN(C(=O)[C@@H](Cc2cccc(C(=N)N)c2)NS(=O)(=O)c2ccc3ccccc3c2)CC1 | NOT MET
